Exercise: state measured activation at 10 µM for each of the compounds provided.
Molecular target: human glucokinase (Homo sapiens, UniProt P35557)
Construct: made in house; host or cells: E. coli
Sequence (P35557 16-465): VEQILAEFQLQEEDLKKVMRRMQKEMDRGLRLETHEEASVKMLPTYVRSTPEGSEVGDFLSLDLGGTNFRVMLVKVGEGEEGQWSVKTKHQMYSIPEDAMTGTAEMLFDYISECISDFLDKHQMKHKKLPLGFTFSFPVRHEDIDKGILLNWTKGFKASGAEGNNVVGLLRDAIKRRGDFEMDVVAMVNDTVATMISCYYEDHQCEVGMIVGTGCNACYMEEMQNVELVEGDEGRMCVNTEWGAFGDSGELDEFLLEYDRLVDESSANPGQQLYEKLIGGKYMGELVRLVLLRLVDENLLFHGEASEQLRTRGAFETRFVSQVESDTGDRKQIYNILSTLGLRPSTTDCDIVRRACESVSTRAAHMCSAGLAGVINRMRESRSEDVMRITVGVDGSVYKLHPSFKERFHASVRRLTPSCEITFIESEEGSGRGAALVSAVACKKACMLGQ
Assay: Measurement of glucokinase activity (G6PDH-coupled, absorbance at 340 nm)
Format: biochemical
Details: test compound at final concentration of 10 μM, 5 mM D-glucose, in comparison with a well that did not comprise the compound; read-out: GK activation effect (%)
Where a name gives a salt, the structure may show the parent alone.

Recorded activation at 10 µM (compound CCCCCN(CC(=O)O)CC(=O)N1CCCC1c1cc(C(=O)Nc2ncc(F)s2)c(C)s1 (stereo not shown) ): 787%

The compound identified as Cc1sc(C2CCCN2C(=O)CNC(N)=O)cc1C(=O)Nc1ncc(F)s1 (single isomer, unassigned; (-)) registered its activation at 10 µM at 600%

Query Cc1sc(C2CCCN2C(=O)[C@H](C)NC(N)=O)cc1C(=O)Nc1ncc(F)s1 (single isomer, unassigned; (-)) yields activation at 10 µM of 613%

Briefly, activation at 10 µM measured for CCCCCN(CC(=O)O)CC(=O)N1C[C@H](F)C[C@H]1c1cc(C(=O)Nc2ncc(F)s2)c(C)s1 : 752%

Recorded activation at 10 µM (compound Cc1sc(C2CCCN2C(=O)CN(C)CCCCC(=O)O)cc1C(=O)Nc1ncc(F)s1 (stereo not shown) [Example 78, hydrochloride] ): 695%

Data point: Cc1sc([C@@H]2C[C@@H](F)CN2C(=O)CN(C)CC(=O)O)cc1C(=O)Nc1ncc(F)s1 [Example 38, hydrochloride] ; activation at 10 µM = 801%

Now examine the next entry.
Entry Cc1sc(C2CCCN2C(=O)CN(C)CCCCC(=O)O)cc1C(=O)Nc1ncc(Cl)s1 (stereo not shown) [Example 79, hydrochloride] , activation at 10 µM reported as 717%
